Target: PMN phosphodiesterase (PDE IV)
Experiment: Assay of PMN phosphodiesterase
Settings: particulate fraction from human PMN, treated with sodium vanadate/glutathione
Method: 4. Assay of PMN Phosphodiesterase This was performed as a particulate fraction from human PMN essentially as described by Souness and Scott (Biochem. J. 291, 389-395, 1993). Particulate fractions were treated with sodium vanadate/glutathione as described by the authors to express the descrete stereospecific site on the phosphodiesterase enzyme.
pIC50: −log10 of the molar value.
property measured: pIC50

Please review the entries below; each comes with its answer.
NC(=O)Nc1c(C(=O)c2ccc(Cl)cc2Cl)oc2cc(OS(=O)(=O)Cc3ccc(Cl)nc3)ccc12 : 7.48
Cc1nn(C)c(Cl)c1S(=O)(=O)Oc1ccc2c(NC(N)=O)c(C(=O)c3ccc(F)cc3F)oc2c1 : 6.89
CN(C)S(=O)(=O)Oc1ccc2c(NC(N)=O)c(C(=O)c3cc(Cl)ccc3Cl)oc2c1 : 8.22
NC(=O)Nc1c(C(=O)c2ccc(Cl)cc2Cl)oc2cc(OS(=O)(=O)c3cccc4cccnc34)ccc12 : 9.00
NC(=O)Nc1c(C(=O)c2ccc(Cl)cc2Cl)oc2cc(OS(=O)(=O)c3ccc(-c4ccccn4)s3)ccc12 : 7.40

[A] Cc1ccc(C(=O)c2oc3cc(OS(=O)(=O)c4cn(C)cn4)ccc3c2NC(N)=O)c(C)c1
[B] CC(=O)Nc1ccc(S(=O)(=O)Oc2ccc3c(NC(N)=O)c(C(=O)c4ccc(Cl)cc4)oc3c2)cc1
Exercise: Which entry has a larger number for pIC50, A or B ? Refer to your chosen item by its label in the answer.
Solution: A
(A: 9.00, B: 7.68)
